Target: Human sputum neutrophil elastase (Homo sapiens, UniProt P08246)
Sequence (P08246 30-247 limits assumed): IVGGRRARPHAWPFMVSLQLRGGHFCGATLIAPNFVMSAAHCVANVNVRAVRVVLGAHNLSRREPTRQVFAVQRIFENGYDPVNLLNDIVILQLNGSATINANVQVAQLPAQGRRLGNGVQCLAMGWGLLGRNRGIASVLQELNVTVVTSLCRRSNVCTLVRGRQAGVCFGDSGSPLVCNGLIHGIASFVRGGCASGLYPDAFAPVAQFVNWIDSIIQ
Assay: Inhibitor IC50 against human neutrophil elastase (fluorogenic MeOSuc-AAPV-AMC substrate)
Conditions: 20 min preincubation, read-out: HNE IC50
pIC50: −log10 of the molar value.
Provide the reported pIC50 of each item.

Measured pIC50, "CCc1cc(OC)cc2nc(-c3cccnc3N3CCC(CN4CCCC4)CC3)oc(=O)c12" : > 7.82

Measured pIC50, "CCc1cc(OC)cc2nc(-c3cccnc3N3CC[C@H](N(C)C)C3)oc(=O)c12" : > 7.82

Measured pIC50, "COCCN1CCN(c2c(-c3nc4cc(OC)cc(C(C)C)c4c(=O)o3)cnn2C)CC1" : < 6.82

Measured pIC50, "CCc1cc(OC)cc2nc(-c3cccnc3N3C[C@@H](CNC4CC4)[C@H](C)C3)oc(=O)c12" : 7.22 to 7.80

Measured pIC50, "CCc1cc(OC)cc2nc(-c3cccnc3N3CC[N+](C)(CC4OCCO4)CC3)oc(=O)c12" : > 7.82

Measured pIC50, "CCc1cc(OC)cc2nc(-c3cccnc3N3CC[N+](C)(CCOC)CC3)oc(=O)c12" : > 7.82

Measured pIC50, "CCc1cccc2nc(-c3cccnc3-n3cc[n+](CCCS(=O)(=O)[O-])c3)oc(=O)c12" : > 7.82

Measured pIC50, "COc1ccc(-c2nc3cccc(Cl)c3c(=O)o2)c(OC)n1" : > 7.82

Measured pIC50, "Cc1cccc2nc(-c3cccnc3SCCS(=O)(=O)c3ccccc3)oc(=O)c12" : 7.22 to 7.80

Measured pIC50, "COc1cc(C2CC2)c2c(=O)oc(-c3cccnc3N3CCCN(C)CC3)nc2c1" : 6.82 to 7.21

Measured pIC50, "Cc1cccc2nc(-c3cccnc3Oc3ccc(Cl)cc3)oc(=O)c12" : 7.22 to 7.80

Measured pIC50, "CCc1cc(OC)cc2nc(-c3cccnc3N3CC[N+](C)(C)CC3)oc(=O)c12" : > 7.82

Measured pIC50, CCc1cccc2nc(-c3cccnc3N3CCN4CCCC4C3)oc(=O)c12 (stereo not shown) : > 7.82

Measured pIC50, "COc1cc(C(C)C)c2c(=O)oc(-c3cnn(C)c3N(C)CCN(C)C)nc2c1" : < 6.82

Measured pIC50, "CCc1cc(OC)cc2nc(-c3cccnc3N3CCC(CCN4CCOCC4)CC3)oc(=O)c12" : > 7.82

Measured pIC50, "CCc1cccc2nc(-c3cccnc3N3CC[C@@H](N(C)C)C3)oc(=O)c12" : > 7.82

Measured pIC50, "CCc1cccc2nc(-c3cccnc3N3CC[N+](C)(CCOC)CC3)oc(=O)c12" : > 7.82

Measured pIC50, "COc1cc(C(C)C)c2c(=O)oc(-c3cccnc3N3CC[C@H](N(C)C)C3)nc2c1" : 6.82 to 7.21

Measured pIC50, COc1cc(C(C)C)c2c(=O)oc(-c3cnn(C)c3N3CCC(N(C)C)C3)nc2c1 (stereo not shown) : < 6.82

Measured pIC50, "CCc1cc(OC)cc2nc(-c3cccnc3N3CCC(N4CCOCC4)CC3)oc(=O)c12" : > 7.82

Measured pIC50, "CCCc1cc(OC)cc2nc(-c3cccnc3N3CCN(CC4CC4)CC3)oc(=O)c12" : 6.82 to 7.21

Measured pIC50, "CCc1cc(OC)cc2nc(-c3cccnc3N3CC[C@H](N4CCNC(=O)C4)C3)oc(=O)c12" : > 7.82

Measured pIC50, CCc1cc(OC)cc2nc(-c3cccnc3N3CCC(N(CC)CC)C3)oc(=O)c12 (stereo not shown) : > 7.82

Measured pIC50, CCCc1cc(OC)cc2nc(-c3cccnc3N(C)C3CCN(C)C3)oc(=O)c12 (stereo not shown) : < 6.82

Measured pIC50, "COc1cc(C(C)C)c2c(=O)oc(-c3cccnc3N3CCN(CC4CC4)CC3)nc2c1" : 6.82 to 7.21

Measured pIC50, "COCCOCCOCCOCCOc1ncccc1-c1nc2cccc(C)c2c(=O)o1" : 7.22 to 7.80

Measured pIC50, CCc1cc(OC)cc2nc(-c3cccnc3N3CCCC(CN4CCOCC4)C3)oc(=O)c12 (stereo not shown) : 7.22 to 7.80

Measured pIC50, "COc1cc(C)c2c(=O)oc(-c3cccnc3-n3ccnc3)nc2c1" : < 6.82

Measured pIC50, "COCCN(CCOC)c1ncccc1-c1nc2cccc(C)c2c(=O)o1" : < 6.82

Measured pIC50, "COc1cc(C(C)C)c2c(=O)oc(-c3cnn(C)c3N3CCN(CCN(C)C)CC3)nc2c1" : < 6.82

Measured pIC50, "Cc1cccc2nc(-c3ncccc3-n3ccnc3)oc(=O)c12" : < 6.82

Measured pIC50, "Cc1cccc2nc(-c3cccnc3OCCOCCOCCOCc3ccccc3)oc(=O)c12" : < 6.82

Measured pIC50, "CCc1cc(OC)cc2nc(-c3cccnc3N3CCN(c4nccs4)CC3)oc(=O)c12" : > 7.82

Measured pIC50, "COCCN1CCN(c2ncccc2-c2nc3cc(OC)cc(C(C)C)c3c(=O)o2)CC1" : 6.82 to 7.21

Values were extracted from patent US7879846B2.
